System: UACC-257 melanoma
run description: NCI-60 one-dose screen, 48 h
condition parameters: 10 µM unless noted
About 83,000 compounds went through this panel and 20% of them were active in at least one assay; those are over-represented in the sample as a whole. Calls of active or inactive are those of the source. How the source made its calls: active means growth percent below 10; inactive means the rest.
Possible outcomes: Yes (active), No (inactive)

compound: CC[C@]1(O)C[C@@H]2CN(CCc3c([nH]c4ccccc34)[C@@](C(=O)OC)(c3cc4c(cc3OC)N(C)[C@H]3[C@@](O)(C(=O)OC)[C@H](OC(=O)CCCBr)[C@]5(CC)C=CCN6CC[C@]43[C@@H]65)C2)C1
assigned class: No

compound: C1CCN(c2nc(N3CCCCC3)nc(N3CCOCC3)n2)CC1
assigned class: No

compound: O=C(/C=C/c1ccc(C(F)(F)F)cc1)c1ccc(Nc2nc(NCCO)nc(N3CCOCC3)n2)cc1
assigned class: No

compound: COc1ccc(-c2nsc3c2NC(=O)CC3c2ccsc2)cc1 (stereo not given)
assigned class: No

compound: CCOC(=O)c1c(C=O)nc2ccccc2c1/C=C/c1ccc(Cl)cc1
assigned class: No

compound: COc1ccc(C2=Nn3c(NN)nnc3SC2)cc1
assigned class: No

compound: Cc1ccc(C(=O)c2oc3ccc4c(C)cc(=O)oc4c3c2C)cc1
assigned class: Yes

compound: CN(C)c1ccc(N=Cc2ccc(N3CCOCC3)cc2)cc1
assigned class: No

compound: O=C(Nc1ncc(Cc2cccc(C(F)(F)F)c2)s1)C1COc2ccccc2O1 (stereo not given)
assigned class: No

compound: O=C(Cn1cc(COc2ncnc3c2cnn3-c2ccccc2)nn1)Nc1cccc2ccccc12
assigned class: No

compound: O=C(c1nc2ccccc2[nH]1)C1C(c2ccc([N+](=O)[O-])cc2)C2CC3CCCCC3N2[C@@]12C(=O)Nc1cc(Cl)ccc12 (stereo not given in full)
assigned class: No

compound: Cc1cc(Nc2ccc(OCc3ccccc3)cc2)nc2cc(O)ccc12
assigned class: No

compound: COc1ccc(/C=C/C(=O)c2c(C)nc3ccccc3c2/C=C/c2ccccc2)cc1O
assigned class: No

compound: CNCCNc1nc2ccccc2c2c(=O)c3cccc(C)c3sc12
assigned class: No

compound: CCN(CC)c1cc(C)c2cc(NC(=O)c3cccc(OC)c3)ccc2n1
assigned class: No

compound: O=c1c2cc(F)cc(Cl)c2sc2c(Cl)nc3ccccc3c12
assigned class: No

compound: COc1cc(CNC(=O)Cc2ccccc2)ccc1OCc1cn(-c2ccc(F)cc2)nn1
assigned class: No

compound: CCCN1C(=O)N(CCC)C2C1NN=c1s/c(=C3\C(=O)N(C(C)C)c4ccccc43)c(=O)n12 (stereo not given)
assigned class: No

compound: COc1ccc(-c2nc(-c3ccccn3)c(-c3ccccn3)n2CC(C)C)cc1OC1CCCC1
assigned class: No

compound: CC(=S)NC(=O)C(=O)/C=C1/NC(=O)C(=O)S1
assigned class: No

---

List of growth values.
Test system: IGROV1 ovarian
run description: NCI-60 one-dose screen, 48 h (100 = growth as untreated, 0 = no growth, -100 = all killed)
condition parameters: 10 µM unless noted
Description: Growth inhibition of the IGROV1 human tumor cell line is measured as a screen for anti-cancer activity. Cells are grown in 96 well plates and exposed to the test compound for 48 hours. Compounds are tested at a single concentration, which is 10^-5 M for most compounds. The reported endpoint is percent growth (GI% or GIPRCNT), where numbers from 0 - 100% represent growth inhibition, and numbers from -100% - 0 represent cell death. For example, a value of 40 represents 60% growth inhibition. […]
Compounds without any hit were thinned out: in the full panel of roughly 83,000, 20% have a hit.
measure: growth (%)

compound: COc1ccccc1C(=O)/C=C/c1ccccc1
measure: growth
assay value: 85.7
//
compound: O=c1oc2ccc(Br)cc2c(=O)n1-c1ccc(Cl)cc1F
measure: growth
assay value: 15.7
//
compound: COc1ccccc1C(=O)O/N=C(\N)Cc1cccc2ccccc12
measure: growth
assay value: 86.7
//
compound: COc1cc(C2CC(c3ccc(Nc4nc(NCCO)nc(N5CCOCC5)n4)cc3)=NN2c2cc(Cl)cc(Cl)c2)cc(OC)c1OC (stereo not given)
measure: growth
assay value: 55
//
compound: COc1ccc(Br)c(/C=C2\SC(=Nc3ccc(O)cc3)NC2=O)c1
measure: growth
assay value: 94.3
//
compound: CC[C@H](C)[C@@H](C(=O)OC)n1cc(CNC(=O)[C@@H](Cc2ccccc2)NC(=O)OCc2ccccc2)nn1
measure: growth
assay value: 92.2
//
compound: COC(=O)C1=C(C)NC(C)=C(C(=O)OC)C(N2C(=O)CCC2=O)C1 (stereo not given)
measure: growth
assay value: 99.3
//
compound: Cc1ccc2sc3c(NCCCNCCO)nc4ccccc4c3c(=O)c2c1
measure: growth
assay value: 48.8
//
compound: Cc1cc(Br)c(N)c(Br)c1
measure: growth
assay value: 110
//
compound: COC(=O)C1=Nc2ccc(F)cc2/C1=C/c1sc(=S)[nH]c1O
measure: growth
assay value: 14.4
